test system: K562 cells; assay: MTS cytotoxicity assay, K562; format: cell-based, human; conditions: Homo sapiens; K562; 72 h incubation, MTS
measured.parameter: IC50 (µM)
Unit µM implied. Number only.

Known results for molecules:
>>> df
                                   molecule   u  observed_value
0  COc1ccccc1/C=C/c1nc(OS(=O)(=O)c2cc3c(cc2Br)OCO3)c2ccccc2n1  µM           0.246
1  COc1ccccc1/C=C/c1nc(OS(=O)(=O)c2ccc3c(c2)OCO3)c2ccccc2n1  µM           0.172
2  COc1ccc(/C=C/c2nc(NCCCN(C)C)c3ccccc3n2)cc1 [CP-31398, reference compound]  µM            3.09
3  COc1ccccc1/C=C/c1nc(OS(=O)(=O)c2ccc(C)cc2)c2ccccc2n1  µM           0.173
4  COc1ccc(/C=C/c2nc(OS(=O)(=O)c3ccc(C)cc3)c3ccccc3n2)cc1  µM            10.2

Exam item: Recorded IC50 for `COc1ccc(/C=C/c2nc(OS(=O)(=O)c3ccc(C)cc3)c3ccccc3n2)c(OC)c1` , please?
Marked response: 2.7

Exam item: Any idea what IC50 was measured for `COc1ccccc1/C=C/c1nc(OS(=O)(=O)c2ccc(C)cc2)c2ccc(Cl)cc2n1` ?
Marked response: 0.078
